# SYSTEM TESTED: Myc-GyrB-FGFR fusion protein (Homo sapiens, UniProt P11362)
# Sequence (P11362 478-767 limits assumed): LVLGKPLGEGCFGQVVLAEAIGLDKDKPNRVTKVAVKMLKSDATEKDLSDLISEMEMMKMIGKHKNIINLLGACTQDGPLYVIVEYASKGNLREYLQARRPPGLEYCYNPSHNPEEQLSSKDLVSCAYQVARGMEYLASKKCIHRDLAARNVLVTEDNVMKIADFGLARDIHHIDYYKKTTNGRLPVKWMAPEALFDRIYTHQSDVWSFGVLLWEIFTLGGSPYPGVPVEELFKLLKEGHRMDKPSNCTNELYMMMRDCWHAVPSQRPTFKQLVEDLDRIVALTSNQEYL
# MEASUREMENT DESCRIPTION: Biochemical FGFR assay (ELISA)
# SETUP CONDITIONS: read-out: bio fgfR1 IC50
pIC50: −log10 of the molar value.
MEASUREMENT KIND: pIC50

• O=C(O)CCc1c(/C=C2\C(=O)Nc3ccc(Cl)cc32)[nH]c2c1CCCC2 = 7.40
• Cc1[nH]c2ccccc2c1/C=C1\C(=O)Nc2ccc(N)cc21 = 4.86
• Cc1c(/C=C2\C(=O)Nc3ccc(S(N)(=O)=O)cc32)[nH]c2ccccc12 [Example 175] = 6.14
• CCOC(=O)c1[nH]c(C=C2C(=O)Nc3ccc(S(N)(=O)=O)cc32)c(CCC(=O)O)c1C = 4.81
• Cc1cccc2c1/C(=C/c1[nH]c3c(c1CCC(=O)O)CCCC3)C(=O)N2 = 7.70
• Cc1[nH]c2ccccc2c1/C=C1\C(=O)Nc2ccc(C(=O)O)cc21 = 5.23
• Cc1c(/C=C2\C(=O)Nc3ccc(C(=O)O)cc32)[nH]c2ccccc12 = 5.44
• Cc1c(/C=C2\C(=O)Nc3ccc(N)cc32)[nH]c2ccccc12 = 5.27
• Nc1ccc2c(c1)/C(=C/c1cc3ccccc3[nH]1)C(=O)N2 = 5.28
• O=C(O)CCc1c(/C=C2\C(=O)Nc3ccccc32)[nH]c2c1CCCC2 = 5.23
• CN(C)S(=O)(=O)c1ccc2c(c1)/C(=C/c1c[nH]c3ccccc13)C(=O)N2 = 4.76
• COc1cccc(-c2ccc3c(c2)NC(=O)/C3=C\c2[nH]cc(C)c2CCC(=O)O)c1 = 5.91
• Cc1cc(CCC(=O)O)c(/C=C2\C(=O)Nc3ccc(Br)cc32)[nH]1 = 6.54
• CCOC(=O)c1c(C)[nH]c(/C=C2\C(=O)Nc3cc(-c4ccc(F)cc4)ccc32)c1CCC(=O)O = 5.59
• COc1ccccc1-c1ccc2c(c1)NC(=O)/C2=C\c1[nH]c2c(c1CCC(=O)O)CCCC2 = 5.11
• O=C1Nc2ccc(C(=O)O)cc2/C1=C/c1c[nH]c2ccccc12 = 6.39
• CCOC(=O)c1[nH]c(/C=C2\C(=O)Nc3cccc(C)c32)c(CCC(=O)O)c1C = 4.90
• O=C1Nc2ccc(C(=O)O)cc2/C1=C/c1ccc2[nH]ccc2c1 = 5.80
• O=C(O)CCc1c(/C=C2\C(=O)Nc3cc(-c4ccccc4)ccc32)[nH]c2c1CCCC2 = 5.93
• CNS(=O)(=O)c1ccc2c(c1)/C(=C/c1c(C)[nH]c3ccccc13)C(=O)N2 = 5.24
• CNS(=O)(=O)c1ccc2c(c1)/C(=C/c1cc3ccccc3[nH]1)C(=O)N2 = 6.54
• NS(=O)(=O)c1ccc2c(c1)/C(=C/c1ccc3[nH]ccc3c1)C(=O)N2 = 5.03
• CCOC(=O)c1[nH]c(/C=C2\C(=O)Nc3cc(OC)ccc32)c(CCC(=O)O)c1C = 5.08
• O=C(O)CCc1c(/C=C2\C(=O)Nc3ccc(Br)cc32)[nH]c2c1CCCC2 = 5.74
• CNS(=O)(=O)c1ccc2c(c1)/C(=C/c1[nH]c3ccccc3c1CCCN(C)C)C(=O)N2 = 6.11
